Items are presented alongside their recorded Urinary K^+ (%).
Test: Bioassay for Diuretic Effect on Rats
Type: in vivo, SLc:SD rats
Conditions: Rat, oral, Dose (mg) 50, urine collected for 5 hours, percentage to control (100%)
Procedure: I . Test Method: • Experiments with rats and mice were carried out according to Assay Programs #27-104 and #27-106, respectively. The outline is as follows. SLc:SD 8-week-old rats (male, about 250g body-weight each) were used for the test. […] The cumulative urine volume, urinary sodium (Na^+), and urinary potassium (K^+) were quantitatively determined. […]

Consider the worked cases shown below.
>>> df
                                   compound  reported_value
0  CC(C(=O)c1cc2c(c(Cl)c1Cl)OC(C(=O)O)C2)=C1SCCS1 (centres unmarked) [Example 3]          217※ %
1  CC(C(=O)c1cc2c(c(Cl)c1Cl)OC(C(=O)O)C2)=C1OCCS1 (centres unmarked) [Example 21]          178※ %
2  CNC(=S)CC(=O)c1cc2c(c(Cl)c1Cl)OC(C(=O)O)C2 (centres unmarked) [Example 67]         306^※ %
3  O=C(C=C1NC=CS1)c1cc2c(c(Cl)c1Cl)OC(C(=O)O)C2 (centres unmarked) [Example 70]         374^※ %

For the compound CSC(=CC(=O)c1cc2c(c(Cl)c1Cl)OC(C(=O)OCC(=O)O)C2)SC (centres unmarked) [Example 17] , give its reported Urinary K^+ (%). 285※ %

* * *

Items are presented alongside their recorded Urine Vol. (%).
Test: Bioassay for Diuretic Effect on Rats
Format: in vivo, SLc:SD rats
Settings: Rat, oral, Dose (mg) 50, urine collected for 5 hours, percentage to control (100%)

                                   molecule    readout_type  reported_value
0  CSC(=CC(=O)c1cc2c(c(Cl)c1Cl)OC(C(=O)OCC(=O)O)C2)SC (centres unmarked)  Urine Vol. (%)          144※ %
1  CC(C(=O)c1cc2c(c(Cl)c1Cl)OC(C(=O)O)C2)=C1OCCS1 (centres unmarked)  Urine Vol. (%)            104%
2  CNC(=S)CC(=O)c1cc2c(c(Cl)c1Cl)OC(C(=O)O)C2 (centres unmarked)  Urine Vol. (%)         148^※ %

For the molecule CC(C(=O)c1cc2c(c(Cl)c1Cl)OC(C(=O)O)C2)=C1SCCS1 (centres unmarked) , give its reported Urine Vol. (%). 153※ %

For the molecule O=C(C=C1NC=CS1)c1cc2c(c(Cl)c1Cl)OC(C(=O)O)C2 (centres unmarked) , give its reported Urine Vol. (%). 154^※ %

The origin of these recorded values is patent EP0189596A1.
